B1: Caulobacter ParB omega fusion; a variant is named by its letters at X, in order, B8GW30 (parent)
chain: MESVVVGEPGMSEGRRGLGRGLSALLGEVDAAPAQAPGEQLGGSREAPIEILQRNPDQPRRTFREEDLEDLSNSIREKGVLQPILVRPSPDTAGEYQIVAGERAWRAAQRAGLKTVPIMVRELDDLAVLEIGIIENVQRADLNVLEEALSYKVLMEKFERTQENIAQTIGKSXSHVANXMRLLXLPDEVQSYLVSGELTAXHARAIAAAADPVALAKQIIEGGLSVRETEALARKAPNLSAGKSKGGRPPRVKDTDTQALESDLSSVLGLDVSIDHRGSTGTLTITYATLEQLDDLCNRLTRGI

# Variants of: B1
# Procedure text: one-hybrid fitness for binding NBS DNA (the Noc-binding site; scaled: cognate 1, non-cognate 0); higher = stronger binding
# Assay setup: with NBS DNA site
Whole data set: some 81,000 sequences, median “one-hybrid fitness for binding NBS DNA” near -0.1, cut for the highest 2% near 0.36. This is one part of a sample in which the highest values are shown more often than they occur.

Alteration	Prefix operator	one-hybrid fitness for binding NBS DNA
TCPE	≤	0.2
KKYR	≤	0.2
TDND	≤	0.2
RRYG	=	0.331
QMGR	=	0.591
YCLC	≤	0.2
KTYR	≤	0.2
KMYR	≤	0.2
KTDR	≤	0.2
QMPR	=	0.323
QMDR	=	0.403
QMDF	≤	0.2
QMGK	=	0.221
QLHC	≤	0.2
RRVM	=	0.206
DCRR	=	0.416
VLPC	≤	0.2
QMNR	=	0.637
QPFC	≤	0.2
QMNN	≤	0.2
KMRR	=	0.398
QMNH	=	0.284
